Reference source for all entries: patent US20260242419A1

tested_system: Recombinant human IL-1β (BioLegend 579404) (human, UniProt P01584 117-269)
experimental_details: cell-based or functional assay
Starred links: 1 amine or outer side, 2 acyl side, 3 side chain; linkers in the order of their positions; H or OH if unused. Non-standard residues stand in square brackets, D forms with d. Primed or numbered codes have the meaning given here. AEFBz4Piperaz = (S)-2-amino-3-(4-(2-(4-(piperazin-1-yl)benzamido)ethoxy)phenyl)propanoic acid, O=C(NCCOc1ccc(C[C@H](N[*:1])C(=O)[*:2])cc1)c1ccc(N2CCN([*:3])CC2)cc1; Bip4CONMe2″ = 4'-(dimethylcarbamoyl)biphenylalanine, CN(C)C(=O)c1ccc(-c2ccc(C[C@H](N[*:1])C(=O)[*:2])cc2)cc1; Phe(4-(5-CO2H-2-pyrimidyl)) = N[C@@H](Cc1ccc(-c2ncc(C(=O)O)cn2)cc1)C(=O)O; dPro(4R-(4-pyridylmethyl)) = O=C(O)[C@H]1C[C@@H](Cc2ccncc2)CN1; Trp(βS-Me,4-F) = C[C@@H](c1c[nH]c2cccc(F)c12)[C@H](N)C(=O)O; Ala(pyrimidin-5-yl) = N[C@@H](Cc1cncnc1)C(=O)O; Phe(4-COOH) = N[C@@H](Cc1ccc(C(=O)O)cc1)C(=O)O; Pro(cis-4-F) = O=C(O)[C@@H]1C[C@H](F)CN1; Ala(4-THP) = N[C@@H](CC1CCOCC1)C(=O)O; d(αMeD) = C[C@@](N)(CC(=O)O)C(=O)O; 4Pal = N[C@@H](Cc1ccncc1)C(=O)O; Dab = NCC[C@H](N)C(=O)O; Aib = CC(C)(N)C(=O)O
endpoint_label: MRC5 IC50 (pM)
Report the figure in pM without appending any unit label.

[
  {
    "binder": "cyclo([Phe(4-(5-CO2H-2-pyrimidyl))][4Pal][Phe(4-COOH)]G[Pro(cis-4-F)][Trp(βS-Me,4-F)][Aib]SW[d(αMeD)][Ala(4-THP)]Q[Dab]G[dPro(4R-(4-pyridylmethyl))]) (ring closure inferred) [SEQ ID NO 351]",
    "MRC5 IC50 / pM": 16
  },
  {
    "binder": "cyclo([Bip4CONMe2″][4Pal][Phe(4-COOH)]G[Pro(cis-4-F)][Trp(βS-Me,4-F)][Aib]SW[d(αMeD)][Ala(4-THP)]Q[Dab]G[dPro(4R-(4-pyridylmethyl))]) (ring closure inferred; not fully specified (N-terminus); printed as cyclic, Bip4CONMe2-4Pal-Phe4COOH-G-Proc4F-SbMeW4F-Aib-S-W-daMeD-AlaTHP4-Q-Dab-G-dProc4CH24Pal) [SEQ ID NO 295]",
    "MRC5 IC50 / pM": 12
  }
]

Attention now turns to another entry.
Let me know recorded MRC5 IC50 for cyclo([AEFBz4Piperaz][4Pal][Phe(4-COOH)]G[Pro(cis-4-F)][Trp(βS-Me,4-F)][Aib]SW[Aib][Ala(pyrimidin-5-yl)]Q[Dab]G[dPro(4R-(4-pyridylmethyl))]) (ring closure inferred; not fully specified (N-terminus); printed as cyclic, AEFBz4Piperaz-4Pal-Phe4COOH-G-Proc4F-SbMeW4F-Aib-S-W-Aib-PyrimAla-Q-Dab-G-dProc4CH24Pal) [SEQ ID NO 306] , thanks.
20
